System: DU-145 prostate
Protocol: NCI-60 one-dose screen, 48 h (100 = growth as untreated, 0 = no growth, -100 = all killed)
Cond: 10 µM unless noted
This is part of a sample that, as a whole, favours compounds with a hit. Of some 83,000 tested, about 20% had one in any assay.

Molecule smiles | Unit | growth
CCNC(=O)Oc1ccc(/C(=C(/C)Cc2ccc(OC)cc2)c2ccc(OCCN3CCCCCC3)cc2)cc1 | % | 92.2
O=C1c2cccnc2C(=O)c2c1c(C(=O)OCCCN1CCCCC1)c1ccccn21 | % | -86.8
Cc1ccc(C)c(-n2c(-c3ccc(Br)cc3)csc2=NC(=O)c2ccccc2F)c1 | % | 102

meta.source: PubChem BioAssay (NCI)
